Target: Ubiquitin carboxyl-terminal hydrolase 2 (Homo sapiens) (UniProt O75604)
Sequence (O75604 whole entry, looked up): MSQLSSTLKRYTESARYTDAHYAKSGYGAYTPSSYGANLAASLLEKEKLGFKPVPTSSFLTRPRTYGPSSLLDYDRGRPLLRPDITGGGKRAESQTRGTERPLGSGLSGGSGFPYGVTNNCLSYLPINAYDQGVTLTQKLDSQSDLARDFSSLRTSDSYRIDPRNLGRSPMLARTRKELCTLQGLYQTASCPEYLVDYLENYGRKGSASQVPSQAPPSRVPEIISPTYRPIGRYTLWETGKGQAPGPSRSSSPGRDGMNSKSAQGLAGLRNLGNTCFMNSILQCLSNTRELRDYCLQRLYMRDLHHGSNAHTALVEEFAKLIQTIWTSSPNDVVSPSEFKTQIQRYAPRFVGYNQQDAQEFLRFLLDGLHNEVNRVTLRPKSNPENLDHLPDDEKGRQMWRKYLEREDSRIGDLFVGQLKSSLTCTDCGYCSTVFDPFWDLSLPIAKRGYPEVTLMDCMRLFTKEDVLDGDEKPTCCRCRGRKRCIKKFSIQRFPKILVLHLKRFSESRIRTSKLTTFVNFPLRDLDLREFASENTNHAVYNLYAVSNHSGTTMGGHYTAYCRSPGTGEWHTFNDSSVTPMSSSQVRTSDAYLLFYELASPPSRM
Test: Confirmation Assay for Inhibitors of Ubiquitin-specific Protease USP2a Using CHOP2 as the Reporter; also: nearly all actives have a fitted effect of over 55% in size; also: potency is read from the fitted curve at half-maximal effect
Conditions: USP2 core, Ub-CHOP2 coupled reporter fluorescence; series mostly up to 38.3 µM
Experimental: NIH Molecular Libraries Probe Centers Network [MLPCN] NIH Chemical Genomics Center [NCGC] MLSCN Grant: XO1-MH079852-01 PI Name: Nicholson, Ben. […] Thus, this coupled assay gives a fluorescent read-out at excitation/emission wavelengths of 485/531. […] NCGC Assay Protocol Summary: The assay buffer, prepared fresh at the day of the assay, contains 20mM Tris-HCl pH 8.0, 2mM CaCl2, 2mM beta-Mercaptoethanol, 0.05% CHAPS. […] The time zero reading was used to flag fluorescence artifacts. […]
Records with an inconclusive call do not appear. Activity calls are given as the source filed them. Calls follow the shape of the dose curve; as a rule, active = well fitted inhibition curve with a large enough effect; inconclusive = small, poorly fitted or top-dose-only effect, or effect the other way; inactive = flat fitted curve, though single readings scatter.
Endpoint: Potency

Known Potency results, listed for orientation:
Incoming: Short answer please: Potency, Ubiquitin carboxyl-terminal hydrolase 2 (Homo sapiens) (UniProt O75604), entry O=C(CCN1C(=O)/C(=C\c2ccco2)SC1=S)Nc1ccc(C(=O)O)c(O)c1
Outgoing: 13.1 µM (active)

Incoming: Also need Cc1cc(Cl)ccc1NC(=S)NCCCN1CCCC1=O , thanks.
Outgoing: inactive

Incoming: Also need Cc1ccc(C2=N/C(=C\c3c(C)nn(-c4ccccc4)c3N3CCCC3)C(=O)O2)cc1 , thanks.
Outgoing: inactive

Incoming: Also need COC(=O)C1CCN(C(=O)c2cc(-c3ccco3)nc3ccccc23)CC1 , thanks.
Outgoing: 13.1 µM (active)

Incoming: Also need Cn1c2ccccc2c2nnc(SC3CCOC3=O)nc21 (stereo unspecified) , thanks.
Outgoing: inactive

Next:
Incoming: Short answer please: Potency, Ubiquitin carboxyl-terminal hydrolase 2 (Homo sapiens) (UniProt O75604), entry CCn1nnnc1SCC(=O)Nc1cccc(C)n1
Outgoing: inactive

Incoming: Also need FC(F)(F)C1=Nc2cccc3cccc(c23)N1 , thanks.
Outgoing: inactive

Incoming: Also need Cc1ccc(SCC(=O)NCC(C)C)cc1 , thanks.
Outgoing: inactive

---

target: Ubiquitin carboxyl-terminal hydrolase 2 (Homo sapiens); experiment: Confirmation Assay for Inhibitors of Ubiquitin-specific Protease USP2a Using CHOP2 as the Reporter; details: USP2 core, Ub-CHOP2 coupled reporter fluorescence; series mostly up to 38.3 µM; also: nearly all actives have a fitted effect of over 55% in size
Inconclusive results are not listed. Active and inactive are the calls of the source. The call rests on the fitted dose curve; in most records, active means well fitted inhibition curve with a large enough effect; inconclusive means small, poorly fitted or top-dose-only effect, or effect the other way; inactive means flat fitted curve, though single readings scatter.
Choose one outcome from this list and give only that: 1 for active, 0 for inactive

Sample answers from the record:
Incoming: What outcome does the record of this test show for CC1CCCCN1CCNC(=O)c1cnn2ccccc12 (stereo not given) ?
Outgoing: 0

Incoming: Also need C=CC[C@H](CC(=O)N[C@H](CO)Cc1ccccc1)C(=O)N[C@@H](COC(=O)[C@@H](CC=C)CC(=O)OC(C)(C)C)Cc1c[nH]c2ccccc12 , thanks.
Outgoing: 0

Incoming: Also need O=C(Nc1cccc(-c2nn[nH]n2)c1)c1ccc(Br)s1 , thanks.
Outgoing: 1

Next:
Incoming: What outcome does the record of this test show for O=C(N/N=C/C=C/c1ccccc1)c1ccncc1 ?
Outgoing: 0

Incoming: Also need CCC(CO)Nc1nc(CN2CCCCC2)nc2scc(-c3ccccc3)c12 (stereo not given) , thanks.
Outgoing: 0

Incoming: Also need CS(=O)(=O)c1nc(-c2ccc(Br)cc2)cc(-c2ccccc2)c1C#N , thanks.
Outgoing: 0

Incoming: Also need O=C(O)C1Nc2c(O)cc(Cl)c([N+](=O)[O-])c2C2C=CCC12 (stereo not given) , thanks.
Outgoing: 1

Incoming: Also need Clc1ccc2c(N/N=C/c3ccc(Br)cc3)ccnc2c1 , thanks.
Outgoing: 1
